molecular target: human NAMPT enzyme (Homo sapiens (Human), UniProt P43490); assay: NAMPT enzyme activating effect (in vitro cell-free enzyme assay); conditions: 2 ng/mL human NAMPT enzyme, 1-h incubation at 25° C., fluorescence of NMN derivative
Sequence (P43490 whole entry): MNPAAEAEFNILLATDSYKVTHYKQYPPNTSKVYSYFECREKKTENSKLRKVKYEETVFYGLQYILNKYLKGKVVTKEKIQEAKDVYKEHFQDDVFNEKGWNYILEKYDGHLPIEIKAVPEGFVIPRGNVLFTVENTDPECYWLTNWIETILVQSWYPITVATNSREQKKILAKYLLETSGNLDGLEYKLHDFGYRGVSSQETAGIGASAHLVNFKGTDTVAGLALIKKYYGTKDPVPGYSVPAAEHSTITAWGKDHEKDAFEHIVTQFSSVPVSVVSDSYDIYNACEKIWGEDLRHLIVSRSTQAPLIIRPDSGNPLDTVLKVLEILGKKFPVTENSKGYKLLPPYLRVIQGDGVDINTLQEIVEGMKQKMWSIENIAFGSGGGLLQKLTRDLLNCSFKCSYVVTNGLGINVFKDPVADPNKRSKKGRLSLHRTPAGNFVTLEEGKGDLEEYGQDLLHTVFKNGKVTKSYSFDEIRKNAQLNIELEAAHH
pEC50: −log10 of the molar value.
Below is a list of entries, each paired with its recorded pEC50 value.

{"columns": ["compound", "experimental_target", "pEC50"],
 "data": [
  ["COc1cccc([C@H]2Oc3cc(NC(=O)NCc4ccncc4)ccc3[C@@H]2C)c1 (relative stereo)", "human NAMPT enzyme (Homo sapiens (Human), UniProt P43490)", 7.10],
  ["Cn1cc(-c2nc3ccc(NC(=O)NCc4ccncc4)cc3o2)cn1", "human NAMPT enzyme (Homo sapiens (Human), UniProt P43490)", 6.01],
  ["O=C(NCc1cnco1)Nc1ccc2nc(-c3ccccc3)oc2c1", "human NAMPT enzyme (Homo sapiens (Human), UniProt P43490)", 6.96],
  ["CN(C)C(=O)n1c(-c2ccccc2)cc2cc(NC(=O)NCc3ccncc3)ccc21", "human NAMPT enzyme (Homo sapiens (Human), UniProt P43490)", 6.54],
  ["O=C(NCc1ccncc1)Nc1ccc2cn(-c3ccccc3)nc2c1", "human NAMPT enzyme (Homo sapiens (Human), UniProt P43490)", 7.40]
]}

---

molecular target: human NAMPT enzyme (Homo sapiens (Human), UniProt P43490); test: NAMPT enzyme activating effect (in vitro cell-free enzyme assay); settings: 2 ng/mL human NAMPT enzyme, 1-h incubation at 25° C., fluorescence of NMN derivative

{"columns": ["molecule", "experimental_target", "readout_unit", "EC50"],
 "data": [
  ["N#Cc1c2ccc(NC(=O)NCc3ccncc3)cc2nn1-c1ccccc1", "human NAMPT enzyme (Homo sapiens (Human), UniProt P43490)", "nM", 110],
  ["COCCOc1cccc(-c2cc3cc(NC(=O)NCc4ccncc4)ccc3n2C)c1", "human NAMPT enzyme (Homo sapiens (Human), UniProt P43490)", "nM", 160],
  ["COC(=O)Cn1c(-c2ccccc2)cc2cc(NC(=O)NCc3ccncc3)ccc21", "human NAMPT enzyme (Homo sapiens (Human), UniProt P43490)", "nM", 560],
  ["COc1cccc(-c2cc3ccc(NC(=O)NCc4ccncc4)cn3n2)c1", "human NAMPT enzyme (Homo sapiens (Human), UniProt P43490)", "nM", 60],
  ["O=C(NCc1ccncc1)Nc1ccc2c(c1)OC(c1ccccc1)C2 (stereo not drawn)", "human NAMPT enzyme (Homo sapiens (Human), UniProt P43490)", "nM", 120],
  ["Cc1c2ccc(NC(=O)NCc3ccncc3)cc2nn1-c1ccccc1", "human NAMPT enzyme (Homo sapiens (Human), UniProt P43490)", "nM", 1000],
  ["CCN(CC)C(=O)c1noc2cc(NC(=O)NCc3ccncc3)ccc12", "human NAMPT enzyme (Homo sapiens (Human), UniProt P43490)", "nM", 240],
  ["CN(C)C(=O)c1c(-c2ccccc2)nn2cc(NC(=O)NCc3ccncc3)ccc12", "human NAMPT enzyme (Homo sapiens (Human), UniProt P43490)", "nM", 110],
  ["O=C(NCc1ccncc1)Nc1ccc2nc(-c3cccn3-c3ccccc3)nn2c1", "human NAMPT enzyme (Homo sapiens (Human), UniProt P43490)", "nM", 230],
  ["O=C(NCc1ccncc1)Nc1ccc2nc(-c3ccccc3)oc2c1", "human NAMPT enzyme (Homo sapiens (Human), UniProt P43490)", "nM", 50],
  ["COc1cc(-n2nc3cc(NC(=O)NCc4ccncc4)ccc3c2C#N)ccn1", "human NAMPT enzyme (Homo sapiens (Human), UniProt P43490)", "nM", 130],
  ["CCC(=O)N1CC(c2ccccc2)COc2cc(NC(=O)NCc3ccncc3)ccc21 (stereo not drawn)", "human NAMPT enzyme (Homo sapiens (Human), UniProt P43490)", "nM", 380],
  ["O=C(NCc1ccncc1)Nc1ccc2cn(-c3cccc(OC(F)F)c3)nc2c1", "human NAMPT enzyme (Homo sapiens (Human), UniProt P43490)", "nM", 110],
  ["O=C(NCc1ccncc1)Nc1ccc2c(c1)cc(-c1ccccc1)n2CC1COCCO1 (stereo not drawn)", "human NAMPT enzyme (Homo sapiens (Human), UniProt P43490)", "nM", 190],
  ["O=C(NCc1ccncc1)Nc1ccc2c(C(=O)N3CCCC3)n(-c3ccccc3)nc2c1", "human NAMPT enzyme (Homo sapiens (Human), UniProt P43490)", "nM", 110],
  ["CN(C)C(=O)c1c(-c2ccccc2)nn2cc(NC(=O)NCc3ccncc3)cc(F)c12", "human NAMPT enzyme (Homo sapiens (Human), UniProt P43490)", "nM", 160],
  ["Cn1c(-c2ccccn2)cc2cc(NC(=O)NCc3ccncc3)ccc21", "human NAMPT enzyme (Homo sapiens (Human), UniProt P43490)", "nM", 530],
  ["COCCOc1ccccc1-n1cc2ccc(NC(=O)NCc3ccncc3)cc2n1", "human NAMPT enzyme (Homo sapiens (Human), UniProt P43490)", "nM", 60],
  ["CCN(CC)C(=O)c1coc2cc(NC(=O)NCc3ccncc3)ccc12", "human NAMPT enzyme (Homo sapiens (Human), UniProt P43490)", "nM", 490],
  ["O=C(NCc1cnco1)Nc1ccc2cn(-c3ccccc3)nc2c1", "human NAMPT enzyme (Homo sapiens (Human), UniProt P43490)", "nM", 140],
  ["CS(=O)(=O)c1cccc(-n2cc3ccc(NC(=O)NCc4ccncc4)cc3n2)c1", "human NAMPT enzyme (Homo sapiens (Human), UniProt P43490)", "nM", 130],
  ["CCN(Cc1ccccc1)C(=O)c1noc2cc(NC(=O)NCc3ccncc3)ccc12", "human NAMPT enzyme (Homo sapiens (Human), UniProt P43490)", "nM", 30],
  ["CC(C)Cn1ncc2cc(NC(=O)NCc3ccncc3)ccc21", "human NAMPT enzyme (Homo sapiens (Human), UniProt P43490)", "nM", 790],
  ["O=C(NCc1cnco1)Nc1ccc2nc(-c3ccccc3)nn2c1", "human NAMPT enzyme (Homo sapiens (Human), UniProt P43490)", "nM", 140],
  ["Cn1c(-c2cccc(S(C)(=O)=O)c2)cc2cc(NC(=O)NCc3ccncc3)ccc21", "human NAMPT enzyme (Homo sapiens (Human), UniProt P43490)", "nM", 620],
  ["COc1cccc(C2Cc3ccc(NC(=O)NCc4ccncc4)cc3O2)c1 (stereo not drawn)", "human NAMPT enzyme (Homo sapiens (Human), UniProt P43490)", "nM", 80],
  ["COc1cccc(-n2cc3ccc(NC(=O)NCc4ccncc4)cc3n2)c1", "human NAMPT enzyme (Homo sapiens (Human), UniProt P43490)", "nM", 10],
  ["Cn1c(-c2ccccc2)cc2cc(NC(=O)NCc3ccncc3)ccc21", "human NAMPT enzyme (Homo sapiens (Human), UniProt P43490)", "nM", 100],
  ["COCCN1CC(c2ccccc2)Oc2cc(NC(=O)NCc3ccncc3)ccc21 (stereo not drawn)", "human NAMPT enzyme (Homo sapiens (Human), UniProt P43490)", "nM", 650],
  ["CC(=O)N1c2ccc(NC(=O)NCc3ccncc3)cc2CC1c1ccccc1 (stereo not drawn)", "human NAMPT enzyme (Homo sapiens (Human), UniProt P43490)", "nM", 180],
  ["CCCCc1ccccc1-c1nc2ccc(NC(=O)NCc3ccncc3)cn2n1", "human NAMPT enzyme (Homo sapiens (Human), UniProt P43490)", "nM", 20],
  ["CCNC(=O)N1CC(c2ccccc2Cl)Oc2cc(NC(=O)NCc3ccncc3)ccc21 (stereo not drawn)", "human NAMPT enzyme (Homo sapiens (Human), UniProt P43490)", "nM", 130],
  ["O=C(NCc1ccncc1)Nc1ccc2nc(-c3ccccc3)nn2c1", "human NAMPT enzyme (Homo sapiens (Human), UniProt P43490)", "nM", 80],
  ["COCCn1c(-c2ccccc2)cc2cc(NC(=O)NCc3ccncc3)ccc21", "human NAMPT enzyme (Homo sapiens (Human), UniProt P43490)", "nM", 130],
  ["O=C(NCc1ccncc1)Nc1cc2oc(-c3ccccc3)nc2cc1F", "human NAMPT enzyme (Homo sapiens (Human), UniProt P43490)", "nM", 10],
  ["Cn1nccc1-c1c(-c2ccccc2)nn2cc(NC(=O)NCc3ccncc3)ccc12", "human NAMPT enzyme (Homo sapiens (Human), UniProt P43490)", "nM", 80]
]}
